Every entry's value here was drawn from paper PMC9090415.

- target system: P. falciparum apicoplast DNA polymerase (Pf-apPOL) (Plasmodium falciparum, UniProt Q8ILY1)
- Sequence (Q8ILY1 entry or part of it): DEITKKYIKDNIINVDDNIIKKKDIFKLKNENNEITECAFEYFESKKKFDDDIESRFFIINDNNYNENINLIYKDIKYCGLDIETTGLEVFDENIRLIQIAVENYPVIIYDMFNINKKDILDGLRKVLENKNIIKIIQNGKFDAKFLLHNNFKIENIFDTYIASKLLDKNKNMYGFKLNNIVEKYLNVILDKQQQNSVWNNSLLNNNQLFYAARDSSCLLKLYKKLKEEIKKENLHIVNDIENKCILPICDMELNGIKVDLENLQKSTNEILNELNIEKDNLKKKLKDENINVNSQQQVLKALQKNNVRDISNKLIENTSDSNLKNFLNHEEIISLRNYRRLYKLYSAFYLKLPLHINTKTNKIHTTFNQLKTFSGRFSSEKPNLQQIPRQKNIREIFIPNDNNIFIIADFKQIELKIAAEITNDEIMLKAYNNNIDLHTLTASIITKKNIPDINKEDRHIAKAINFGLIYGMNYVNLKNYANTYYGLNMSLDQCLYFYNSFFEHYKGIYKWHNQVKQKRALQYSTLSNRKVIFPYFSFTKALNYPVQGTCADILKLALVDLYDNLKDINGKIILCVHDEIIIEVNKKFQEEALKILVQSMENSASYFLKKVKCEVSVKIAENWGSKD
- protocol: Fluorescence-based high-throughput DNA polymerase assay (molecular beacon), primary screen and dose-response
- Assay type: biochemical
- settings: DRC-2; read at 180'; concentration 10

{"compound": "COc1ccc(/C=C/c2cc(C(=O)O)c3ccccc3n2)cc1", "% inhibition apPOL 180' 10 [%]": -139}
{"compound": "COc1ccccc1CC(=O)N1CCc2c(nc3cc(-c4ccccc4Cl)[nH]n3c2=O)C1", "% inhibition apPOL 180' 10 [%]": 34}
{"compound": "C#CC(C=CC)OC(=O)c1ccccc1C(=O)O (stereo not drawn)", "% inhibition apPOL 180' 10 [%]": 13}
{"compound": "Cc1cccc(-c2noc(C(=O)NNC(=O)C(Cl)(Cl)Cl)n2)c1", "% inhibition apPOL 180' 10 [%]": 5.71}
{"compound": "O=C(CCc1csc(NC(=O)Nc2ccccc2)n1)Nc1nc2ccccc2s1", "% inhibition apPOL 180' 10 [%]": 32}
{"compound": "Cc1nc(C)c2c(n1)N(CC1CCCCC1)C(=O)CC2", "% inhibition apPOL 180' 10 [%]": 34}
{"compound": "Nc1cc(Oc2ccc(O)c(N)c2)ccc1O", "% inhibition apPOL 180' 10 [%]": 43}
{"compound": "Cn1nc(-c2nnc(-c3ccccc3F)o2)c2c1CCN(C(=O)c1ccccc1Cl)C2", "% inhibition apPOL 180' 10 [%]": 31}
{"compound": "CCCc1ccc(Oc2coc3cc(OC)ccc3c2=O)cc1", "% inhibition apPOL 180' 10 [%]": 12}
{"compound": "O=C1CSC2=NC3=C(CCc4ccccc43)C(c3cccs3)N12 (stereo not drawn)", "% inhibition apPOL 180' 10 [%]": 11}
{"compound": "CC(=O)Nc1cc(C(=O)c2cccs2)nn(-c2ccc(Cl)cc2)c1=O", "% inhibition apPOL 180' 10 [%]": 4}
{"compound": "N#Cc1c(O)nc(N2CCCCC2)nc1-c1ccc2c(c1)OCO2", "% inhibition apPOL 180' 10 [%]": 23}

====

Listing of recorded % inhibition Apo pol 10' by entry.
- target system: P. falciparum apicoplast DNA polymerase (Pf-apPOL) (Plasmodium falciparum)
- protocol: Fluorescence-based high-throughput DNA polymerase assay (molecular beacon), primary screen and dose-response
- Assay type: biochemical
- settings: DRC-1; 10'; concentration 10

{"compound": "O=C1NCCCn2cc(S(=O)(=O)Nc3ccccc3)cc21", "% inhibition Apo pol 10', %": 23.7327}
{"compound": "CN(C)C=C1SCc2ccccc2C1=O", "% inhibition Apo pol 10', %": 31.6418}
{"compound": "CCC(C)NC(=O)c1cc(NC(C)=O)cc2nc(C)ccc12 (stereo not shown)", "% inhibition Apo pol 10', %": 27.7087}
{"compound": "O=C(NCC1CCN(C2CCCC2)CC1)C(=O)NC1CCCC1", "% inhibition Apo pol 10', %": 11.8369}
{"compound": "Cc1ccc(-n2nnc(C(=O)O)c2-c2ccccn2)c(F)c1", "% inhibition Apo pol 10', %": 36.76}
{"compound": "N#CC(=NNc1cc(C(F)(F)F)cc(C(F)(F)F)c1)C(=O)c1ccco1", "% inhibition Apo pol 10', %": 33.1185}
{"compound": "COc1ccc(-c2cc3nc4c(c(=O)n3[nH]2)CCN(C(=O)CCc2ccccc2)C4)cc1", "% inhibition Apo pol 10', %": 64}
